- test: Microsomal stability, human liver microsomes (predicted hepatic clearance)
- recorded.conditions: predicted from in vitro microsomal stability data
Assign labels as follows, please: MET for Predicted Hepatic Clearance (Pred. Cl.) below 5 mL/min/kg; NOT MET for Predicted Hepatic Clearance (Pred. Cl.) equal to or exceeding 5 mL/min/kg.

[[record]]
compound = "COCCn1c(Cc2cc(F)c(-c3cccc(OCc4cc(F)c(C(F)F)cc4F)n3)cc2F)nc2ccc(C(=O)O)cc21 [Example 863]"
qualitative_label = "MET"

[[record]]
compound = "COCCn1c(Cc2c(F)cc(-c3cccc(OCc4ccc(C#N)cc4F)n3)cc2C#N)nc2ccc(C(=O)O)cc21 [Example 537]"
qualitative_label = "MET"

[[record]]
compound = "N#Cc1ccc(COc2cccc(-c3cc(F)c(Cc4nc5ccc(C(=O)O)cc5n4C[C@@H]4CCO4)cc3F)n2)cc1 [Example 536]"
qualitative_label = "MET"

[[record]]
compound = "N#Cc1ccc(COc2cccc(-c3ccc(Cc4nc5ccc(C(=O)O)cc5n4CC4(CF)CC4)c(F)c3)n2)c(F)c1 [Example 10]"
qualitative_label = "MET"

[[record]]
compound = "COC1(Cn2c(Cc3cc(F)c(-c4cccc(OCc5ccc(C#N)cc5F)n4)cc3F)nc3ccc(C(=O)O)cc32)COC1 [Example 636]"
qualitative_label = "NOT MET"


Shift focus to the following entry.
**Query** Decide: Predicted Hepatic Clearance (Pred. Cl.) of CO[C@H]1C[C@H](Cn2c(Cc3cc(F)c(-c4cccc(OCc5ccc(C#N)cc5F)n4)cc3F)nc3ccc(C(=O)O)cc32)C1 [Example 745] strictly below 5 mL/min/kg?
**Result** MET

---

- target.or.system: GLP-1R (Homo sapiens)
- Sequence (P43220 24-463): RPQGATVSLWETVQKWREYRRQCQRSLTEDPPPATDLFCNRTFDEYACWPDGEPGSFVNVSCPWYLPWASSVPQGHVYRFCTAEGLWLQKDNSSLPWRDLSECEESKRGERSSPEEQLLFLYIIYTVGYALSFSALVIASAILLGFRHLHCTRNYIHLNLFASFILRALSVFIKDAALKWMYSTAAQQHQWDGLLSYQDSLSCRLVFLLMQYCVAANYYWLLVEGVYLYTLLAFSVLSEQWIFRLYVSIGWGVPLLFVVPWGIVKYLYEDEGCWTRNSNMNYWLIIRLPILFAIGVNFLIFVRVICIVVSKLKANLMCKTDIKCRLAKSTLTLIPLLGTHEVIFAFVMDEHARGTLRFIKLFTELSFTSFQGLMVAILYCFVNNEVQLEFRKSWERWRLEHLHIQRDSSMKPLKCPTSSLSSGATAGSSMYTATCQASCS
- test: GLP-1R activation: cAMP increase in CHO cells stably expressing GLP-1R
- Format: cell-based
- recorded.conditions: cAMP increase, CHO cells stably expressing GLP-1R, 10 point dose response, 30 minutes incubation; read-out: EC50
Mark Fulfilled only for EC50 values smaller than 0.02 µM; exact matches and larger values are Not fulfilled.

Look over these answered cases.
[[record]]
chemical_structure = "COCCn1c(Cc2ccc(-c3cccc(OCc4ccc(C#N)cc4F)n3)nc2)nc2ccc(C(=O)O)cc21"
qualitative_label = "Not fulfilled"

[[record]]
chemical_structure = "COC[C@@H](C)n1c(Cc2cc(F)c(-c3cccc(OCc4ccc(C#N)cc4F)n3)cc2F)nc2ccc(C(=O)O)cc21"
qualitative_label = "Fulfilled"

[[record]]
chemical_structure = "COCCn1c(Cc2cc(F)c(-c3cccc(OCc4ccc(-c5cnn(C)c5)cc4F)n3)cc2F)nc2ccc(C(=O)O)cc21"
qualitative_label = "Fulfilled"

[[record]]
chemical_structure = "N#Cc1ccc(COc2cccc(-c3ccn(Cc4nc5ccc(C(=O)O)cc5n4CC4(CF)CC4)c(=O)c3)n2)c(F)c1"
qualitative_label = "Fulfilled"

[[record]]
chemical_structure = "N#Cc1ccc(COc2cccc(-c3ccc(Cc4nc5c(F)cc(C(=O)O)cc5n4Cc4ccon4)c(F)c3)n2)c(F)c1"
qualitative_label = "Fulfilled"

[[record]]
chemical_structure = "N#Cc1ccc(COc2cccc(-c3cc(F)c(Cc4nc5ccc(C(=O)O)cc5n4CC4CC5(COC5)C4)cc3F)n2)c(F)c1"
qualitative_label = "Fulfilled"


**Query** Check if EC50 falls below 0.02 µM for COCCn1c(Cc2ccc(-c3csnc3OCc3ccc(C#N)cc3F)cc2F)nc2ccc(C(=O)O)cc21 .
**Result** Not fulfilled

---

- test: Microsomal stability, human liver microsomes (predicted hepatic clearance)
- recorded.conditions: predicted from in vitro microsomal stability data
Entry class follows Predicted Hepatic Clearance (Pred. Cl.): zone 1: < 3 mL/min/kg; zone 2: ≥ 3 mL/min/kg and < 7 mL/min/kg; zone 3: ≥ 7 mL/min/kg

[[record]]
chemical_structure = "COCCn1c(Cc2cc(F)c(-c3ccc(F)c(OCc4ccc(C#N)cc4F)n3)cc2F)nc2ccc(C(=O)O)cc21"
qualitative_label = "zone 1"

[[record]]
chemical_structure = "COCCn1c(Cc2ccc(-c3cccc(OCc4ccc(C#N)cc4F)n3)c(C#N)c2)nc2ccc(C(=O)O)cc21"
qualitative_label = "zone 3"

[[record]]
chemical_structure = "COc1cc(Cl)ccc1COc1cccc(-c2cc(F)c(Cc3nc4ccc(C(=O)O)cc4n3CC3(CF)CC3)cc2F)n1"
qualitative_label = "zone 3"

[[record]]
chemical_structure = "N#Cc1ccc(COc2cccc(-c3cc(F)c(Cc4nc5ccc(C(=O)O)cc5n4[C@H]4CCNC4=O)cc3F)n2)c(F)c1"
qualitative_label = "zone 1"

[[record]]
chemical_structure = "COCC(COC)n1c(Cc2cc(F)c(-c3cccc(OCc4ccc(C#N)cc4F)n3)cc2F)nc2ccc(C(=O)O)cc21"
qualitative_label = "zone 3"


**Query** Any idea which band COCCn1c(Cc2ccc(-c3cccc(OCc4ccc(C#N)cc4F)n3)cc2C#CC(C)(C)O)nc2ccc(C(=O)O)cc21 is in?
**Result** zone 3

---

- target.or.system: GLP-1R (Homo sapiens)
- test: GLP-1R activation: cAMP increase in CHO cells stably expressing GLP-1R
- Type: cell-based
- recorded.conditions: cAMP increase, CHO cells stably expressing GLP-1R, 10 point dose response, 30 minutes incubation; read-out: EC50
pEC50: −log10 of the molar value.
Just so you know, the groups by pEC50 go like this: bucket 1 (below 7), bucket 2 (7 to below 9), bucket 3 (9 or more)

[[record]]
chemical_structure = "O=C(O)c1cc(F)c2nc(Cc3cc(F)c(-c4nc(OCc5ccc(C(F)(F)F)cc5F)ccc4F)cc3F)n(C[C@@H]3CCO3)c2c1"
qualitative_label = "bucket 3"


**Query** Kindly state the category for this compound: COCCn1c(Cc2ccc(-c3cccc(OCc4ccc(C#N)cc4F)n3)cc2C#CC2CC(F)(F)C2)nc2ccc(C(=O)O)cc21
**Result** bucket 2

**Query** Categorize the following entry: COc1cc(Cl)ccc1COc1cccc(-c2cc(F)c(Cc3nc4ccc(C(=O)O)cc4n3CC3(CF)CC3)cc2F)n1
**Result** bucket 3

**Query** Assign a bin to N#Cc1cc(F)c(COc2nccc(-c3cc(F)c(Cc4nc5c(F)cc(C(=O)O)cc5n4C[C@@H]4CCO4)cc3F)n2)cc1F
**Result** bucket 3

**Query** Please let me know in which category the item COCCn1c(Cc2ccc(-c3cccnc3OCc3ccc(C#N)cc3F)cc2F)nc2ccc(C(=O)O)cc21 belongs.
**Result** bucket 1

---

Each entry below carries its recorded EC50.
- target.or.system: GLP-1R (Homo sapiens)
- test: GLP-1R activation: cAMP increase in CHO cells stably expressing GLP-1R
- Type: cell-based
- recorded.conditions: cAMP increase, CHO cells stably expressing GLP-1R, 10 point dose response, 30 minutes incubation; read-out: EC50
# value in nM; strip the unit string

Example results:
[[record]]
chemical_structure = "O=C(O)c1ccc2nc(Cc3cc(F)c(-c4cccc(OCc5ccc(C(F)F)cc5F)n4)cc3F)n(Cc3ncco3)c2c1"
unit_of_measure = "nM"
reported_measurement = 0.74

[[record]]
chemical_structure = "COCCn1c(Cc2cc(F)c(-c3cccc(OCc4ccc(C#N)cc4)n3)cc2F)nc2ccc(C(=O)O)cc21"
unit_of_measure = "nM"
reported_measurement = 0.92

[[record]]
chemical_structure = "COc1cc(Cl)ccc1COc1nccc(-c2ccc(Cc3nc4ccc(C(=O)O)cc4n3CC3(CC#N)CC3)cc2F)n1"
unit_of_measure = "nM"
reported_measurement = 0.28


Okay, next one:
// N#Cc1ccc(COc2nccc(-c3ccc(Cc4nc5c(F)cc(C(=O)O)cc5n4CC45CC(CO4)C5)cc3F)n2)c(F)c1 : EC50 value = 19.6

---

- test: Microsomal stability, human liver microsomes (predicted hepatic clearance)
- recorded.conditions: predicted from in vitro microsomal stability data
measurement.kind: Predicted Hepatic Clearance (Pred. Cl.)
Hi, when you answer, please include the unit after the number. Thanks!

Use these answered entries as a reference point.
[[record]]
compound = "COCCn1c(Cc2ccc(-c3cccc(OCc4ccc(C#N)cc4F)n3)c(F)c2)nc2c(F)cc(C(=O)O)cc21"
measurement_kind = "Predicted Hepatic Clearance (Pred. Cl.)"
reported_measurement = "3.33 mL/min/kg"

[[record]]
compound = "COCCn1c(Cc2c(F)cc(-c3ccnnc3OCc3ccc(C#N)cc3F)cc2F)nc2ccc(C(=O)O)cc21"
measurement_kind = "Predicted Hepatic Clearance (Pred. Cl.)"
reported_measurement = "5.17 mL/min/kg"

[[record]]
compound = "N#Cc1ccc(COc2cccc(-c3cc(F)c(Cc4nc5ccc(C(=O)O)cc5n4Cc4ccc[nH]c4=O)cc3F)n2)c(F)c1"
measurement_kind = "Predicted Hepatic Clearance (Pred. Cl.)"
reported_measurement = "4.67 mL/min/kg"

[[record]]
compound = "N#Cc1cc(F)c(COc2cccc(-c3ccc(Cc4nc5c(F)cc(C(=O)O)cc5n4C[C@@H]4CCO4)cc3F)n2)cc1F"
measurement_kind = "Predicted Hepatic Clearance (Pred. Cl.)"
reported_measurement = "3.17 mL/min/kg"

[[record]]
compound = "COCCn1c(Cc2cc(F)c(-c3cccc(OCc4ccc(Cl)nc4)n3)cc2F)nc2ccc(C(=O)O)cc21"
measurement_kind = "Predicted Hepatic Clearance (Pred. Cl.)"
reported_measurement = "1.83 mL/min/kg"


// CC(=O)N1CCC[C@H]1Cn1c(Cc2ccc(-c3ccc(F)c(OCc4ccc(Cl)cc4F)c3)cc2F)nc2ccc(C(=O)O)cc21 [Example 482] : Predicted Hepatic Clearance (Pred. Cl.) value = 4.83 mL/min/kg

get_value(item= N#Cc1ccc(COc2ccc(F)c(-c3ccc(Cc4nc5ccc(C(=O)O)cc5n4C[C@@H]4CCO4)cc3)n2)c(F)c1 , readout=Predicted Hepatic Clearance (Pred. Cl.)) returns 6.17 mL/min/kg

Reference for the values: patent US11702404B2
